- TARGET ENTITY: T1, mouse tissue factor pathway inhibitor (TFPI) (mouse, UniProt O54819 29-289, limits assumed)
- T1 construct: bought; also called mTFPI; murine TFPI
- T1 sequence (looked up): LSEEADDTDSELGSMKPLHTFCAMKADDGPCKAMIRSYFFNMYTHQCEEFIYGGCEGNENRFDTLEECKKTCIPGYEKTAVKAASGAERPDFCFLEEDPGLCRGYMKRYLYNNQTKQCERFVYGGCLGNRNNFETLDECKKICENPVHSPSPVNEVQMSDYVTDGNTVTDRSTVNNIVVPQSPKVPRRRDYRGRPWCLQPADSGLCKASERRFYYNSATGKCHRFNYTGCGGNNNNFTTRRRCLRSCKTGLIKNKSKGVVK
- ASSAY EXPLANATION: competitive ELISA
A collection of binders and their measured variant/HC_K99L
Just the number in ratio, nothing appended.

# variant/HC_K99L of 2A8 HC S31V+S54F+K99L/LC N51V (Fab, V domains shown) VH: QVQLVESGGGLVQPGGSLRLSCAASGFTFRVYGMSWVRQAPGKGLEWVSSIRGFSSSTYYADSVKGRFTISRDNSKNTLYLQMNSLRAEDTAVYYCARLYRYWFDYWGQGTLVTVSS VL: DIELTQPPSVSVAPGQTARISCSGDNLRNYYAHWYQQKPGQAPVVVIYYDVNRPSGIPERFSGSNSGNTATLTISGTQAEDEADYYCQSWDDGVPVFGGGTKLTVLG = 15.7

# variant/HC_K99L of 2A8 HC Q1E+S35D+S55R+K99L/LC Y48F+N51V+D91W (Fab, V domains shown) VH: EVQLVESGGGLVQPGGSLRLSCAASGFTFRSYGMDWVRQAPGKGLEWVSSIRGSRSSTYYADSVKGRFTISRDNSKNTLYLQMNSLRAEDTAVYYCARLYRYWFDYWGQGTLVTVSS VL: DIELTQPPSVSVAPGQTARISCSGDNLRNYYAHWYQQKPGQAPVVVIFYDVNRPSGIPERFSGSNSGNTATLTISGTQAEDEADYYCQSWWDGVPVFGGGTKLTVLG = 20.3
